Source listed as patent US20240067729A1.

- tested.on: T1, human PD-L1, his tagged (hPD-L1-his) (human, UniProt Q9NZQ7 19-238, limits assumed)
- T1 construct: also called huPD-L1-His; recombinant human PD-L1; not shown: his tag
- measurement.protocol: BLI (ForteBio Octet), hPD-L1-his
For each of the binders below, state its kon.
Response body: numeric value in M⁻¹ s⁻¹, unit text excluded.

(Q) For the binder h769-tm3 (humanized 769-hIgG1 variant) (antibody, V domains shown) VH: EVQLVQSGAEVKKPGATVKISCKVSGFNIKDTYMHWVQQAPGKGLEWMGLIDPANDNTIYAEKFQGRVTITADTSTDTAYMELSSLRSEDTAVYYCAREGYGGSYGEGYWGQGTLVTVSS VL: EIVMTQSPPTLSLSPGERVTLSCRASQSVSNDLSWYQQKPGQAPRLLIYYASIRFTGIPARFSGSGSGTDFTLTISSLQPEDFAVYFCQQDYNSPWTFGQGTKVEIK , give its measured kon value.
(A) 311000

(Q) Respond only with kon recorded for h769-IF3 (humanized 769-hIgG1 variant) (antibody, V domains shown) VH: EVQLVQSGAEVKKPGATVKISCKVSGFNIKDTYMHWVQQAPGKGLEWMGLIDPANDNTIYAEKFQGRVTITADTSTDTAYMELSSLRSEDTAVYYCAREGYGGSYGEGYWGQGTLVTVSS VL: EIVMTQSPPTLSLSPGERVTLSCRASQSVSNDLSWYQQKPGQAPRLLIYYASIRFTGIPARFSGSGSGTDFTLTISSLQPEDFAVYYCQQDYNSPWTFGQGTKVEIK
(A) 330000

(Q) Provide kon value for the following binder: h769-tm2 (humanized 769-hIgG1 variant) (antibody, V domains shown) VH: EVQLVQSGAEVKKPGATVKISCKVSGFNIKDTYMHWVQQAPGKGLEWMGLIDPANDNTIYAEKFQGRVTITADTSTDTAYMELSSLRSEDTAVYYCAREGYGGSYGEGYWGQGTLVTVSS VL: EIVMTQSPPTLSLSPGERVTLSCRASQSVSNDLSWYQQKPGQAPRLLIYYASIRFTGIPARFSGSGYGTDFTLTISSLQPEDFAVYYCQQDYNSPWTFGQGTKVEIK
(A) 331000

(Q) Identify measured kon corresponding to 769-hIgG1 (chimeric PAL769) (antibody, V domains shown) VH: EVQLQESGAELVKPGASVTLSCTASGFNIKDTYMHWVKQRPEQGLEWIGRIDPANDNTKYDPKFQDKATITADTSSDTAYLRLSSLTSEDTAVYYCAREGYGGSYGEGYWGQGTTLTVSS VL: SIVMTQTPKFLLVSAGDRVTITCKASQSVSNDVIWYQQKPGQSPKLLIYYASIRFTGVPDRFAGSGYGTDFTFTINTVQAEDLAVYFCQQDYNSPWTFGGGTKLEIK
(A) 373000
